Entries annotated with measured % Positive
# systemTested: T1, human Siglec-7 expressed on human cells (primary monocytes, dendritic cells, macrophages, NK cells, … (human, UniProt Q9Y286 19-467))
# T1 construct: Endogenous receptor on cells; also called Siglec-7 receptor
# T1 sequence (Q9Y286 19-467): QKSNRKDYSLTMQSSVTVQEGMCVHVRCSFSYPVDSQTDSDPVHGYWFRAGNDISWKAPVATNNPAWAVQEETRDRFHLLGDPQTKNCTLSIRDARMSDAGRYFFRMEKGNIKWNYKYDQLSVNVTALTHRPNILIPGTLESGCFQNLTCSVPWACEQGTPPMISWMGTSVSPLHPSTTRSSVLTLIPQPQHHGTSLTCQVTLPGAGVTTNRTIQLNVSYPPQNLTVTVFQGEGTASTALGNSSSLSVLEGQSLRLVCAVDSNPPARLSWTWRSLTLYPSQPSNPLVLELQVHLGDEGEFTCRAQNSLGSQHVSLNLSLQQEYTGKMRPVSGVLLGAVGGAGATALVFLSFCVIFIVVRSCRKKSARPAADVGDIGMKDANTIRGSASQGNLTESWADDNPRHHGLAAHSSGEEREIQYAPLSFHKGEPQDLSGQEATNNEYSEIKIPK
# methodDescription: FACS, human primary dendritic cells, 10 ug/ml mAb
Reply with just the number (in %).

In the examples that follow, each entry is paired with its recorded % Positive.
anti-Siglec-7 antibody 3E11 (antibody, V domains shown, Variable domains assembled from FR and CDR entries) VH: QVQLQQSGAELARPGASVKLSCKASGYIFTDYGITWVKQRTGQGLEWIGEISPRSGETYFNENYRVKATLTADKSSSTAYMQLFSLTSEDSAVYFCAREGNPFTYWGHGTLVTVSA VL: DVZMTQTPLSLPVSLGDQASISCRSSQSLVHSTGNTYLHWYLQKPGQSPKLLIYKVSNRFCGVPDRFSGSGAGTDFTLKISRVEAEDLGVYFCSQNTHVPYTFGGGTKLEIK; 99.6
anti-Siglec-7 antibody 2G4 (antibody, V domains shown, Variable domains assembled from FR and CDR entries) VH: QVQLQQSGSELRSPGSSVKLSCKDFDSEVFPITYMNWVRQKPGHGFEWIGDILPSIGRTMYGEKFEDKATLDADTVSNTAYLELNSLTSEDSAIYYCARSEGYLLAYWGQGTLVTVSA VL: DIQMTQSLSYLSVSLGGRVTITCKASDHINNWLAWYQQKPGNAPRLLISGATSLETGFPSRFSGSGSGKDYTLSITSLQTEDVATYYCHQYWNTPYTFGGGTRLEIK; 99.7

# input Any idea what its % Positive is? The binder is anti-Siglec-7 antibody 1E8 (antibody, V domains shown) VH: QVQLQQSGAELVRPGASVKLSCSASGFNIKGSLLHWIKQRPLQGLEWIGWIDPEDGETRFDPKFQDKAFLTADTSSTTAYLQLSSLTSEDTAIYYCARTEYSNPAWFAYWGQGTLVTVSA VL: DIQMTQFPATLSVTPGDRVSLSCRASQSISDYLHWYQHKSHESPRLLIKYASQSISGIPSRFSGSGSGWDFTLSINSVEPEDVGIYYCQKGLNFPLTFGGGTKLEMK
# output 99.7

# input Try the binder anti-Siglec-7 antibody 2G1 (antibody, V domains shown, Variable domains assembled from FR and CDR entries; the printed VL FR1 looks shortened at its N-terminus; also called 2G11 (misprint in text)) VH: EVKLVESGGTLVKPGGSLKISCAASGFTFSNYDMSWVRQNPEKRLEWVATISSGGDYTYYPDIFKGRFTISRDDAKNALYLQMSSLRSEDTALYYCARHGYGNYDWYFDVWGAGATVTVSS VL: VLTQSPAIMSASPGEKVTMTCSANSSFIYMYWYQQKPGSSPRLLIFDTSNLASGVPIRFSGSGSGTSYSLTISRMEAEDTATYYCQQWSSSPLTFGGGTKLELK
# output 99.7

# input Try the binder anti-Siglec-7 antibody 4E3 (antibody, V domains shown, VL FR1 there holds a Z); also called S7-4E3; mAb S7-4E3) VH: EVQLVESGGALVKPGGSLKISCAVSGFIFSNYDMSWVRQNPEKRLEWVATISSGGGYTYYPDSVKGRFTISRDNAKNALYLQMSSLRSEDTALYYCTRHGYGNYDWYFDVWGAGATVTVSS VL: QIVLTQSPAILSASPGEKVTMTCSANSSFTYMYWYQQKPGSSPRLLIFDTSNLASGVPIRFSGSGSGTSYSLTISRMEAEDTATYYCQQWSSSPLTFGAGTKLELK
# output 99.7
